tested system: T1, Rhesus monkey MuSK (recombinant, streptavidine and Flag tag) (rhesus monkey, UniProt O15146 24-495 (human entry))
T1 construct: also called Rhesus MuSK; not shown: streptavidine and Flag tag
T1 chain: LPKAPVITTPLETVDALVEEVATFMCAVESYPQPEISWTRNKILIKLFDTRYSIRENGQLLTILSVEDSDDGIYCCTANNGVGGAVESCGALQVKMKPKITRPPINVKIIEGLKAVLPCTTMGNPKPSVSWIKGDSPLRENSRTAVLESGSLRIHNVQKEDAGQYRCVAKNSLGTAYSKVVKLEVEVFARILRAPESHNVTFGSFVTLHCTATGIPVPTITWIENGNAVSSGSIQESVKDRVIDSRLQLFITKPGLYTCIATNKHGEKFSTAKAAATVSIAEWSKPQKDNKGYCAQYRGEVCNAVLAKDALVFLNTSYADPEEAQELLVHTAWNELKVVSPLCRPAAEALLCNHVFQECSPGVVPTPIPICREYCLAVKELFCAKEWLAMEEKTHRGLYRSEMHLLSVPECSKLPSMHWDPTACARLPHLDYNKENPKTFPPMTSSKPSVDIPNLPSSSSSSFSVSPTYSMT
experimental details: SPR (Biacore), antibody captured on anti-hFc chip, MuSK injected 0.3125-10 nM
Catalogue of Kd values
The reply should consist of the numeric value with the unit placed after it.

# binder, Kd
measured = [
    ("3D10a (antibody, human IgG1, kappa, L234A L235A, V domains shown) VH: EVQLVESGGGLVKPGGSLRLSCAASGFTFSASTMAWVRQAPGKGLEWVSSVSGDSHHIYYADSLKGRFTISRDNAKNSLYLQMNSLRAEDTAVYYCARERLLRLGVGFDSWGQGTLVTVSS VL: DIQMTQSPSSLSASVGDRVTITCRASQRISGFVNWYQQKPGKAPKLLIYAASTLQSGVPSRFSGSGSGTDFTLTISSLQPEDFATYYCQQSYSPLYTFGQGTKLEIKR", "0.21 nM"),
    ("4D3 (antibody, human IgG1, kappa, L234A L235A, V domains shown) VH: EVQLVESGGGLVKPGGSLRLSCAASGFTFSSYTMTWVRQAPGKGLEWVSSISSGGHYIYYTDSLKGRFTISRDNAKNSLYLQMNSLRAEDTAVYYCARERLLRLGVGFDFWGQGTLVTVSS VL: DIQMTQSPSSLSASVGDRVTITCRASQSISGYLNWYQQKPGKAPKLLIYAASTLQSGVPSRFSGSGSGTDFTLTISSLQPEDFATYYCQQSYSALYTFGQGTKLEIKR", "0.31 nM"),
    ("3F6c (antibody, human IgG1, kappa, L234A L235A, V domains shown) VH: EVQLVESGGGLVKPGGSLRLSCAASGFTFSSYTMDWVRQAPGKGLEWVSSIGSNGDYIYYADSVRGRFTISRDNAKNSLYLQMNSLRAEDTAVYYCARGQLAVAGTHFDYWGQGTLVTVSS VL: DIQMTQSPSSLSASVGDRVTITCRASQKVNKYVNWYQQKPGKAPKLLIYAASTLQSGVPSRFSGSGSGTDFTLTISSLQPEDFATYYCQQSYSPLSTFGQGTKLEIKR", "0.13 nM"),
]

Field: next binder
### Prompt I'd like to know its Kd. The binder in question is 3D9b (antibody, human IgG1, kappa, L234A L235A, V domains shown) VH: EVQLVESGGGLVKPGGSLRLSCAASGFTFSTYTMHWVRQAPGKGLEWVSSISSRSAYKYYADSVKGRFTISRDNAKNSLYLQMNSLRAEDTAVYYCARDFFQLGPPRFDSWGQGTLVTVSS VL: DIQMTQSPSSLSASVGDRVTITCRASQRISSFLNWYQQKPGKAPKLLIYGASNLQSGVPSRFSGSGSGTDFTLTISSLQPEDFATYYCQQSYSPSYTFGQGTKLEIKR
### Response 0.28 nM

Every entry's value here was drawn from patent US20230110188A1.
